- Tested on: Micrococcus luteus
- assay details: Antibacterial activity against Micrococcus luteus ATCC 4698 after 18 to 24 hrs by CLSI two fold serial dilution method
- Type: functional
measured quantity: MIC (µM)

{"compound": "CCCCCCCCCCCCOc1c(OC)cc(/C=N/NC(N)=S)c2c1CN1CCc3cc4c(cc3C1C2)OCO4 (stereo not given)", "measured quantity": "MIC", "observed measurement": 110}
{"compound": "COc1cc(/C=N/NC(N)=S)c2c(c1OCc1cccc(Cl)c1)CN1CCc3cc4c(cc3C1C2)OCO4 (stereo not given)", "measured quantity": "MIC", "observed measurement": 470}
{"compound": "COc1cc(/C=N/NC(N)=S)c2c(c1OCc1ccc(Cl)c(Cl)c1)CN1CCc3cc4c(cc3C1C2)OCO4 (stereo not given)", "measured quantity": "MIC", "observed measurement": 440}
{"compound": "C=CCOc1c(OC)cc(/C=N/Nc2nccs2)c2c1CN1CCc3cc4c(cc3C1C2)OCO4 (stereo not given)", "measured quantity": "MIC", "observed measurement": 130}
{"compound": "CCOc1c(OC)cc(/C=N/Nc2nccs2)c2c1CN1CCc3cc4c(cc3C1C2)OCO4 (stereo not given)", "measured quantity": "MIC", "observed measurement": 530}

====

- Tested on: Bacillus subtilis
- assay details: Antibacterial activity against Bacillus subtilis ATCC 21216 after 18 to 24 hrs by CLSI two fold serial dilution method
- Assay type: functional

{"molecule": "C#CCOc1c(OC)cc(/C=N/NC(N)=S)c2c1CN1CCc3cc4c(cc3C1C2)OCO4 (stereo not given)", "scale unit": "µM", "MIC": 550}
{"molecule": "COc1cc(/C=N/NC(N)=S)c2c(c1OCc1ccc(F)cc1)CN1CCc3cc4c(cc3C1C2)OCO4 (stereo not given)", "scale unit": "µM", "MIC": 480}
{"molecule": "C#CCOc1c(OC)cc(/C=N/Nc2nccs2)c2c1CN1CCc3cc4c(cc3C1C2)OCO4 (stereo not given)", "scale unit": "µM", "MIC": 520}
{"molecule": "CCOc1c(OC)cc(/C=N/Nc2nccs2)c2c1CN1CCc3cc4c(cc3C1C2)OCO4 (stereo not given)", "scale unit": "µM", "MIC": 530}
{"molecule": "CCCCCCOc1c(OC)cc(/C=N/Nc2nccs2)c2c1CN1CCc3cc4c(cc3C1C2)OCO4 (stereo not given)", "scale unit": "µM", "MIC": 120}

====

- Test system: Micrococcus luteus
- assay details: Antibacterial activity against Micrococcus luteus ATCC 4698 after 18 to 24 hrs by CLSI two fold serial dilution method
- Assay type: functional

{"compound": "C#CCOc1c(OC)cc(/C=N/Nc2nccs2)c2c1CN1CCc3cc4c(cc3C1C2)OCO4 (stereo not drawn)", "tested on": "Micrococcus luteus", "MIC, µM": 520}
{"compound": "COc1cc(/C=N/Nc2nccs2)c2c(c1OCc1ccc([N+](=O)[O-])cc1)CN1CCc3cc4c(cc3C1C2)OCO4 (stereo not drawn)", "tested on": "Micrococcus luteus", "MIC, µM": 220}
{"compound": "CCCCCCCCOc1c(OC)cc(/C=N/NC(N)=S)c2c1CN1CCc3cc4c(cc3C1C2)OCO4 (stereo not drawn)", "tested on": "Micrococcus luteus", "MIC, µM": 240}
{"compound": "COc1cc(/C=N/Nc2nccs2)c2c(c1OCc1ccccc1F)CN1CCc3cc4c(cc3C1C2)OCO4 (stereo not drawn)", "tested on": "Micrococcus luteus", "MIC, µM": 230}
{"compound": "COc1cc(/C=N/NC(N)=S)c2c(c1OCc1ccc(Cl)cc1Cl)CN1CCc3cc4c(cc3C1C2)OCO4 (stereo not drawn)", "tested on": "Micrococcus luteus", "MIC, µM": 110}
{"compound": "CCCCCCCCCCOc1c(OC)cc(/C=N/NC(N)=S)c2c1CN1CCc3cc4c(cc3C1C2)OCO4 (stereo not drawn)", "tested on": "Micrococcus luteus", "MIC, µM": 230}
{"compound": "CCCCCCCCCCCCOc1c(OC)cc(/C=N/Nc2nccs2)c2c1CN1CCc3cc4c(cc3C1C2)OCO4 (stereo not drawn)", "tested on": "Micrococcus luteus", "MIC, µM": 830}
{"compound": "CCCCOc1c(OC)cc(/C=N/NC(N)=S)c2c1CN1CCc3cc4c(cc3C1C2)OCO4 (stereo not drawn)", "tested on": "Micrococcus luteus", "MIC, µM": 270}
{"compound": "CCCCOc1c(OC)cc(/C=N/Nc2nccs2)c2c1CN1CCc3cc4c(cc3C1C2)OCO4 (stereo not drawn)", "tested on": "Micrococcus luteus", "MIC, µM": 250}
{"compound": "COc1cc(/C=N/NC(N)=S)c2c(c1OCCO)CN1CCc3cc4c(cc3C1C2)OCO4 (stereo not drawn)", "tested on": "Micrococcus luteus", "MIC, µM": 270}
{"compound": "C#CCOc1c(OC)cc(/C=N/NC(N)=S)c2c1CN1CCc3cc4c(cc3C1C2)OCO4 (stereo not drawn)", "tested on": "Micrococcus luteus", "MIC, µM": 280}
{"compound": "COc1cc(/C=N/Nc2nccs2)c2c(c1OCc1ccc(Cl)cc1Cl)CN1CCc3cc4c(cc3C1C2)OCO4 (stereo not drawn)", "tested on": "Micrococcus luteus", "MIC, µM": 110}
{"compound": "COc1cc(/C=N/NC(N)=S)c2c(c1OCc1ccc(F)cc1)CN1CCc3cc4c(cc3C1C2)OCO4 (stereo not drawn)", "tested on": "Micrococcus luteus", "MIC, µM": 480}
{"compound": "COc1cc(/C=N/Nc2nccs2)c2c(c1OCC#N)CN1CCc3cc4c(cc3C1C2)OCO4 (stereo not drawn)", "tested on": "Micrococcus luteus", "MIC, µM": 260}
{"compound": "COc1cc(/C=N/Nc2nccs2)c2c(c1OCCO)CN1CCc3cc4c(cc3C1C2)OCO4 (stereo not drawn)", "tested on": "Micrococcus luteus", "MIC, µM": 260}
{"compound": "COc1cc(/C=N/Nc2nccs2)c2c(c1OCc1cccc(Cl)c1)CN1CCc3cc4c(cc3C1C2)OCO4 (stereo not drawn)", "tested on": "Micrococcus luteus", "MIC, µM": 220}
{"compound": "COc1cc(/C=N/NC(N)=S)c2c(c1OCc1ccc([N+](=O)[O-])cc1)CN1CCc3cc4c(cc3C1C2)OCO4 (stereo not drawn)", "tested on": "Micrococcus luteus", "MIC, µM": 110}

====

- System: Aspergillus fumigatus
- assay details: Antifungal activity against drug-resistant Aspergillus fumigatus by CLSI two fold serial dilution method
- Type: functional
A collection of molecules and their measured log10 of MIC
measured quantity: log10 of MIC (log10 of the value in µM)

{"molecule": "COc1cc(/C=N/NC(N)=S)c2c(c1OCc1cccc(Cl)c1)CN1CCc3cc4c(cc3C1C2)OCO4 (stereo not given)", "observed measurement": 2.08}
{"molecule": "OC(Cn1cncn1)(Cn1cncn1)c1ccc(F)cc1F", "observed measurement": 2.92}
{"molecule": "COc1cc(/C=N/NC(N)=S)c2c(c1OCc1ccccc1Cl)CN1CCc3cc4c(cc3C1C2)OCO4 (stereo not given)", "observed measurement": 0.60}
{"molecule": "COc1cc(/C=N/NC(N)=S)c2c(c1OCc1ccccc1)CN1CCc3cc4c(cc3C1C2)OCO4 (stereo not given)", "observed measurement": 1.78}
{"molecule": "CCCCCCCCCCCCOc1c(OC)cc(/C=N/NC(N)=S)c2c1CN1CCc3cc4c(cc3C1C2)OCO4 (stereo not given)", "observed measurement": 0.85}

====

Listing of recorded MIC by entry.
- System: Escherichia coli
- assay details: Antibacterial activity against Escherichia coli DH52 after 18 to 24 hrs by CLSI two fold serial dilution method
- Type: functional

{"molecule": "CCCCCCOc1c(OC)cc(/C=N/NC(N)=S)c2c1CN1CCc3cc4c(cc3C1C2)OCO4 (stereo not given)", "scale unit": "µM", "MIC": 30}
{"molecule": "C=CCOc1c(OC)cc(/C=N/NC(N)=S)c2c1CN1CCc3cc4c(cc3C1C2)OCO4 (stereo not given)", "scale unit": "µM", "MIC": 140}
{"molecule": "COc1cc(/C=N/Nc2nccs2)c2c(c1O)CN1CCc3cc4c(cc3C1C2)OCO4 (stereo not given)", "scale unit": "µM", "MIC": 280}
{"molecule": "COc1cc(/C=N/Nc2nccs2)c2c(c1OCC#N)CN1CCc3cc4c(cc3C1C2)OCO4 (stereo not given)", "scale unit": "µM", "MIC": 260}
{"molecule": "COc1cc(/C=N/Nc2nccs2)c2c(c1OCc1ccccc1Cl)CN1CCc3cc4c(cc3C1C2)OCO4 (stereo not given)", "scale unit": "µM", "MIC": 450}

====

Entries and their measured solubility at 3 h follow.
- assay details: Aqueous solubility of the compound in phosphate buffer at pH 7.4 after 3 hrs by UV detection assay
- Type: physicochemical
measured quantity: solubility at 3 h

{"compound": "COc1cc(/C=N/Nc2nccs2)c2c(c1OCc1ccc(F)cc1)CN1CCc3cc4c(cc3C1C2)OCO4 (stereo not drawn)", "observed measurement": "374 to 3190 µg/mL"}
{"compound": "COc1cc(/C=N/Nc2nccs2)c2c(c1OCc1ccccc1)CN1CCc3cc4c(cc3C1C2)OCO4 (stereo not drawn)", "observed measurement": "374 to 3190 µg/mL"}
{"compound": "COc1cc(/C=N/Nc2nccs2)c2c(c1OCc1ccc(Cl)c(Cl)c1)CN1CCc3cc4c(cc3C1C2)OCO4 (stereo not drawn)", "observed measurement": "374 to 3190 µg/mL"}
{"compound": "COc1cc(/C=N/Nc2nccs2)c2c(c1OCc1ccc(Cl)cc1Cl)CN1CCc3cc4c(cc3C1C2)OCO4 (stereo not drawn)", "observed measurement": "1900 µg/mL"}
{"compound": "COc1cc(/C=N/Nc2nccs2)c2c(c1OCc1ccccc1Cl)CN1CCc3cc4c(cc3C1C2)OCO4 (stereo not drawn)", "observed measurement": "374 to 3190 µg/mL"}
{"compound": "COc1cc(/C=N/Nc2nccs2)c2c(c1OCc1ccc([N+](=O)[O-])cc1)CN1CCc3cc4c(cc3C1C2)OCO4 (stereo not drawn)", "observed measurement": "374 to 3190 µg/mL"}
{"compound": "COc1cc(/C=N/Nc2nccs2)c2c(c1OCc1ccccc1F)CN1CCc3cc4c(cc3C1C2)OCO4 (stereo not drawn)", "observed measurement": "374 to 3190 µg/mL"}
{"compound": "CCOc1c(OC)cc(/C=N/Nc2nccs2)c2c1CN1CCc3cc4c(cc3C1C2)OCO4 (stereo not drawn)", "observed measurement": "10200 µg/mL"}
{"compound": "CCCCCCCCCCOc1c(OC)cc(/C=N/Nc2nccs2)c2c1CN1CCc3cc4c(cc3C1C2)OCO4 (stereo not drawn)", "observed measurement": "61 µg/mL"}
{"compound": "COc1cc(/C=N/Nc2nccs2)c2c(c1OCCO)CN1CCc3cc4c(cc3C1C2)OCO4 (stereo not drawn)", "observed measurement": "7020 to 10200 µg/mL"}
{"compound": "COc1cc(/C=N/Nc2nccs2)c2c(c1O)CN1CCc3cc4c(cc3C1C2)OCO4 (stereo not drawn)", "observed measurement": "1660 µg/mL"}
{"compound": "C=CCOc1c(OC)cc(/C=N/Nc2nccs2)c2c1CN1CCc3cc4c(cc3C1C2)OCO4 (stereo not drawn)", "observed measurement": "7020 to 10200 µg/mL"}
{"compound": "COc1ccc2cc3[n+](cc2c1OC)CCc1cc2c(cc1-3)OCO2 [BERBERINE]", "observed measurement": "86 µg/mL"}
{"compound": "COc1cc(/C=N/Nc2nccs2)c2c(c1OCC#N)CN1CCc3cc4c(cc3C1C2)OCO4 (stereo not drawn)", "observed measurement": "7020 to 10200 µg/mL"}
{"compound": "COc1cc(/C=N/Nc2nccs2)c2c(c1OCc1ccc(Cl)cc1)CN1CCc3cc4c(cc3C1C2)OCO4 (stereo not drawn)", "observed measurement": "374 to 3190 µg/mL"}
{"compound": "CCCCCCOc1c(OC)cc(/C=N/Nc2nccs2)c2c1CN1CCc3cc4c(cc3C1C2)OCO4 (stereo not drawn)", "observed measurement": "1420 µg/mL"}
{"compound": "COc1cc(/C=N/Nc2nccs2)c2c(c1OCc1cccc(Cl)c1)CN1CCc3cc4c(cc3C1C2)OCO4 (stereo not drawn)", "observed measurement": "374 to 3190 µg/mL"}
{"compound": "CCCCOc1c(OC)cc(/C=N/Nc2nccs2)c2c1CN1CCc3cc4c(cc3C1C2)OCO4 (stereo not drawn)", "observed measurement": "7020 to 10200 µg/mL"}
